Recorded values, source PubChem BioAssay.

Assay: growth suppression of beta-catenin knockout HCT116, pilot screen, human colon tumor cells (AID 823);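 note: 0% = wells killed by 20 µM Hyamine and 100% = untreated DMSO cell wells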
Conditions: CellTiter-Glo, 60 h, at 10 µM, hits give low values
Results filed as inconclusive are left out.
REPORTED PROPERTY: viability (%)
Give a bare numeral; the unit % is implied.

Answered examples (2):
- O=C1c2ccccc2NC(c2ccc3c(c2)OCCO3)N1c1ccc2c(c1)OCCO2 (stereo not drawn): 90.5
- COc1ccc(N2CCN(Cc3nc4c(c(=O)[nH]c(=O)n4C)n3Cc3cccc(Cl)c3)CC2)cc1: 91.6

Kindly review the next compound as well.
Problem: Look up and state reported viability for O=C(CCN1CCc2ccccc2C1)Nc1ccccc1
Solution: 89.8

###

Assay: viability gain of MRP-1-high H69AR cells under doxorubicin, pilot screen, MRP-1 activator project, CellTiter-Glo, duplicate (AID 807);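 note: compound pretreatment 18-22 h then 72 h combined with doxorubicin; 0% = doxorubicin alone and 100% = vehicle without doxorubicin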
Details: H69AR viability with doxorubicin, CellTiter-Glo luminescence; at 10 µM; hits give high values
Measured viability increase by item
Give a bare numeral; the unit % is implied.

Answered examples (3):
* CC(CCc1ccccc1)NC(=O)c1nnc(Cc2ccc(F)cc2)o1 (stereo not given) | 0
* O=C(CC(c1ccccc1)c1ccccc1)NCCO | 0.49
* COc1ccc(S(=O)(=O)Cc2ccc(C(=O)NC(C)C)o2)cc1 | 1.22

Problem: Look up and state reported viability increase for COc1cccc(N2CCN(C(=O)C3CCCN(S(=O)(=O)c4cnc[nH]4)C3)CC2)c1 (stereo not given)
Solution: 0.99

Problem: Look up and state reported viability increase for CC(Oc1ccc(Cl)cc1Cl)C(=O)NCCCN(C)C (stereo not given)
Solution: -2.25

###

Assay: OD615 S. cerevisiae growth inhibition, permissive medium, pilot counter-assay, permissive growth control for S. cerevisiae lifespan shortening project (AID 705)
Details: OD615, 24 h, at 10 µM, hits give high values
REPORTED PROPERTY: growth inhibition (%)
Give a bare numeral; the unit % is implied.

Answered examples (5):
- CCCSc1nnc(Cn2c(=O)sc3ccccc32)n1-c1ccccc1: -9.77
- O=C(C(c1ccccc1)c1ccccc1)N1CCOCC1: -6.96
- N=c1n(CCO)c2ccccc2n1CCOc1ccc(Cl)cc1Cl: -0.15
- CC1CCC(NC(=O)Cn2cc3c(n2)CCCC3)CC1 (stereo not drawn): -4.87
- C=CCn1c2ccccc2c2nnc(SCN3C(=O)c4ccccc4C3=O)nc21: 7.65

Problem: Look up and state reported growth inhibition for O=C(O)CCc1ccc(-c2cccs2)n1-c1ccc(C(=O)O)cc1
Solution: -3.21

Problem: Look up and state reported growth inhibition for COc1ccccc1NC(=O)c1c(NC(=O)c2ccco2)sc2c1CCC2
Solution: -9.49

###

Assay: Restrictive medium S. cerevisiae growth inhibition, OD615, pilot screen of yeast lifespan reduction project, restrictive growth control (AID 706);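 note: modified DeaD lifespan yeast strain shifted to restrictive glucose medium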
Conditions: OD615, 48 h, at 10 µM, hits give high values
Would you mind labelling by growth inhibition? At or over 10% is Fulfilled, under is Not fulfilled.

Completed entries (count: 3):
- COc1ccc(OC)c(CCNC(=O)Cn2sc3nc(C)cc(C)c3c2=O)c1: Fulfilled
- CCOC(=O)CC(=O)Nc1ccc(C(=O)OCC)cc1: Not fulfilled
- COc1ccc(N2CCN(C(=O)c3ccc4c(c3)OCO4)CC2)cc1: Fulfilled

Problem: Threshold query (growth inhibition >= 10%) on CCOc1ccccc1N1CCN(S(=O)(=O)CC)CC1
Solution: Not fulfilled

Problem: Threshold query (growth inhibition >= 10%) on COCCNC(=O)c1cc2c(-c3ccc(Cl)cc3)nn(C)c2s1
Solution: Not fulfilled

###

Test: viability gain of MRP-1-high H69AR cells under doxorubicin, pilot screen, MRP-1 activator project, CellTiter-Glo, duplicate (AID 807);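 note: compound pretreatment 18-22 h then 72 h combined with doxorubicin; 0% = doxorubicin alone and 100% = vehicle without doxorubicin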
Settings: H69AR viability with doxorubicin, CellTiter-Glo luminescence; at 10 µM; hits give high values
REPORTED PROPERTY: viability increase (%)
Give a bare numeral; the unit % is implied.

Answered examples (4):
• CC12CCC(C(=O)N3CCCc4ccccc43)(CC1=O)C2(C)C (centres undefined) = -0.39
• COc1ccc2c(c1OC)C(=O)OC2Nc1ccccn1 (centres undefined) = -2.18
• Cc1ccccc1NC(=O)CN1C(=O)COc2ccc(Cl)cc21 = 1.63
• CC1CC(C)CN(c2nc3c(c(=O)[nH]c(=O)n3C)n2CCSc2nc3ccccc3o2)C1 (centres undefined) = -2.41

Kindly review the next compound as well.
Problem: Look up and state reported viability increase for O=C(Nc1nccs1)C12CC3CC(C1)CC(C(=O)Nc1nccs1)(C3)C2
Solution: -2.85

###

Assay: OD615 S. cerevisiae growth inhibition, permissive medium, pilot counter-assay, permissive growth control for S. cerevisiae lifespan shortening project (AID 705)
Conditions: OD615, 24 h, at 10 µM, hits give high values
Measured growth inhibition by item
Give a bare numeral; the unit % is implied.

Answered examples (3):
- Cc1nc2ccc(S(=O)(=O)NC(C(=O)NCc3ccco3)C(C)C)cc2s1 (stereo unspecified): -6.93
- COc1ccc(CNC(=O)c2onc(C)c2Cl)cc1: -14.2
- O=C(OCCN(C1=NS(=O)(=O)c2ccccc21)c1ccc(Cl)cc1)c1ccco1: -15.9

Problem: Look up and state reported growth inhibition for O=C(CCC1CC(=O)Nc2ccccc21)NCc1cccnc1 (stereo unspecified)
Solution: -10.7

Problem: Look up and state reported growth inhibition for CCCc1cc(C(=O)NCc2ccc(OC)cc2)no1
Solution: -7.46

Problem: Look up and state reported growth inhibition for COc1ccc(N=C2SC(C(=O)O)CC(=O)N2C)cc1 (stereo unspecified)
Solution: -5.94

###

Measured viability by item
Experiment: growth suppression of PTEN-deleted HCT116, pilot screen, cell-based, HCT116 clonal line, CellTiter-Glo (AID 824);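 note: 0% = 20 µM Hyamine control and 100% = vehicle cell control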
Conditions: 60 h, at 10 µM, hits give low values
Results filed as inconclusive are left out.
Give a bare numeral; the unit % is implied.

* Cc1oc(-c2ccc(Cl)cc2)nc1CN1CCCC(C(=O)NCCCN2CCCC2=O)C1 (stereo unspecified) | 78.7

Problem: Look up and state reported viability for COc1ccc(CNC(=O)CS(=O)Cc2nc(-c3ccccc3C)oc2C)cc1 (stereo unspecified)
Solution: 101

Problem: Look up and state reported viability for O=C1CN(C(=O)CN2CCOCC2)C(c2ccccc2)c2cc(Br)ccc2N1 (stereo unspecified)
Solution: 92.8

Problem: Look up and state reported viability for CC(C)N(Cc1nc(-c2ccc(Cl)cc2)no1)C(=O)CCCN1C(=O)c2ccccc2C1=O
Solution: 91.6

Problem: Look up and state reported viability for N#Cc1ccc(CSCC(=O)O)cc1
Solution: 107

Problem: Look up and state reported viability for COc1ccc(-c2nc(CS(=O)CC(=O)NCCC3=CCCCC3)c(C)o2)cc1 (stereo unspecified)
Solution: 79.6

###

Experiment: Restrictive medium S. cerevisiae growth inhibition, OD615, pilot screen of yeast lifespan reduction project, restrictive growth control (AID 706);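 note: modified DeaD lifespan yeast strain shifted to restrictive glucose medium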
Settings: OD615, 48 h, at 10 µM, hits give high values
REPORTED PROPERTY: growth inhibition (%)
Give a bare numeral; the unit % is implied.

Answered examples (5):
* COCCN1C(=O)c2ccccc2C(C(=O)NCCN(C)C)C1c1ccc(F)cc1 (configuration not stated) | -19.9
* COc1ccc2cc(CCNC(=O)C3CCCC3)c(=O)[nH]c2c1 | -9.8
* CCCC(=O)Nc1ccc(N2CCCCC2)cc1 | -9.51
* CCOC(=O)C1CCN(CC(O)COc2ccc(C(C)(C)CC)cc2)CC1 (configuration not stated) | -10.4
* CSC1=N/C(=C\c2ccccc2F)C(=O)S1 | -24.4

Problem: Look up and state reported growth inhibition for O=CN1CCN(C(C(=O)NC2CCCC2)c2ccc(Cl)cc2)CC1 (configuration not stated)
Solution: 4.62

Problem: Look up and state reported growth inhibition for O=C(O)CN(Cc1ccco1)S(=O)(=O)c1ccccc1
Solution: -13

###

Assay: RAM signaling pathway blockade in yeast – S. cerevisiae, Pdr1DBD-CYC8 efflux-inhibited sensitized strain, primary screen (AID 1298);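 note: 0% = DMSO untreated cells without growth and 100% = 10 µM 1-NA-PP1 full growth; higher means more yeast growth rescued from 5-FOA killing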
Conditions: S. cerevisiae cbk1-as DSE1-URA3 strain, 5-FOA growth OD615, 2 d; at 50 µM; hits give high values
Measured RAM network inhibition by item
Give a bare numeral; the unit % is implied.

Answered examples (4):
* COc1ccc2c(c1)C(=O)CC(c1ccccc1F)O2 (stereo not given) | 5.83
* CN1CCc2c(c3ccccc3n2Cc2ccccc2)C1 | 5.12
* Cn1c(NC(=O)CC2CCCCC2)cc(=O)n(C)c1=O | -0.37
* CN1CCN(C(=O)C2CCCCC2C(=O)O)CC1 (stereo not given) | -0.26

Problem: Look up and state reported RAM network inhibition for O=C(CN(C1CCCCC1)S(=O)(=O)c1ccc(Cl)cc1)NCc1ccncc1
Solution: 3.63

###

Measured inhibition by item
Experiment: inhibitors of the yeast RAM network, pilot screen, dse1pr::URA3 reporter, 5-FOA selection (AID 869);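 note: 0% = DMSO wells with no growth and 100% = 10 µM 1-NA-PP1 with full growth; RAM network block rescues cells from 5-FOA so hits raise OD615 growth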
Details: S. cerevisiae dse1pr::URA3 5-FOA growth, OD615, 2 d; at 10 µM; hits give high values; strain carries analog-sensitive mutant Cbk1 kinase
Calls of active or inactive are those of the source.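 How the source made its calls: active means inhibition over a set limit, the all-compound mean plus 3 SD, in both replicate runs; inconclusive means over that limit in just one replicate run; inactive means at or under that limit in both runs.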

Answered examples (3):
* CCCCn1c(C(C)NC(=O)CC)nc2ccccc21 (centres undefined) | 0.01% (inactive)
* CCOC(=O)C1CCCN(C(=O)Cn2ncc3c(=O)oc4ccc(C)cc4c32)C1 (centres undefined) | 2.19% (inactive)
* COc1ccc(-c2nnc3ccc(SCC(=O)N4CCCCCC4)nn23)cc1OC | 0.615% (inactive)

Problem: Look up and state reported inhibition for COc1ccc(CCNC(=O)CCn2c(=O)oc3ccccc32)cc1
Solution: -0.205% (inactive)
